Let's look at some substances and their measured EC50.
testSystem: hNPY2R (Homo sapiens, UniProt P49146)
Construct: expressed in transfected cells; host or cells: HEK-293 cells carrying a CRE-luciferase reporter gene
Sequence (P49146 whole entry): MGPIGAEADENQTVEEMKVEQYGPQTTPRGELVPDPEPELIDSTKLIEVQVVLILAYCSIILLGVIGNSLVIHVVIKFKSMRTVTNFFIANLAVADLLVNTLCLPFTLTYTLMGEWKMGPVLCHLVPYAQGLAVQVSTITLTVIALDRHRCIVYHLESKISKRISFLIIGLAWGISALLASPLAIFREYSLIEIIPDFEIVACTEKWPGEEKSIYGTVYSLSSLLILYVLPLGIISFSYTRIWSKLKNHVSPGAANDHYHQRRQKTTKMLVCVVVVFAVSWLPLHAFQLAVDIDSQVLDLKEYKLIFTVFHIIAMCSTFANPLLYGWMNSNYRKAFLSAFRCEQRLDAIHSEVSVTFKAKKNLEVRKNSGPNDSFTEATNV
runDescription: hNPY2R CreLuc reporter gene assay in 0.5% and 100% plasma
Format: cell-based
conditionDescription: CreLuc reporter gene assay, 0.5% human plasma; read-out: hNPY2R 0.5% hP
Starred links: 1 amine or outer side, 2 acyl side, 3 side chain; linkers in the order of their positions; H or OH if unused. Non-standard residues stand in square brackets, D forms with d. Groups on a side chain read outwards from the residue. No end group written: not given here. *: point of attachment. C20 diacid = O=C(O)CCCCCCCCCCCCCCCCCCC(=O)*; C18 diacid = O=C(O)CCCCCCCCCCCCCCCCC(=O)*; γGlu = O=C(O)[C@H](CCC(=O)[*:2])N[*:1]; εLys = N[C@@H](CCCCN[*:1])C(=O)[*:2]; AEEA = NCCOCCOCC(=O)O; Aib = CC(C)(N)C(=O)O
measuredProperty: EC50

- H-Y[Aib]EGTFTSDYSI[Aib]LEKQAQ[Aib]AFVEWLIK([AEEA-AEEA-γGlu-γGlu-γGlu-γGlu-C20 diacid])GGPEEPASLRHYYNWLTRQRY-NH2 [Compound 206]: 0.0134 µM
- H-Y[Aib]EGTFTSDYSI[Aib]LEKQAQ[Aib]AFVEWLIK([Glu-Glu-Glu-Glu-C18 diacid])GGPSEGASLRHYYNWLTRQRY-NH2 [Compound 291]: 0.0143 µM
- H-Y[Aib]EGTFTSDYSI[Aib]LEKQAQ[Aib]AFVQWLIK([AEEA-AEEA-γGlu-γGlu-γGlu-γGlu-γGlu-C18 diacid])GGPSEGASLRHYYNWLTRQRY-NH2 [Compound 246]: 0.0128 µM
- H-Y[Aib]EGTFTSDYSI[Aib]LEKQAQ[Aib]AFVQWLIK([AEEA-AEEA-γGlu-γGlu-γGlu-γGlu-γGlu-C20 diacid])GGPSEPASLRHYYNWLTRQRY-NH2 [Compound 111]: 0.0134 µM
- H-Y[Aib]EGTFTSDYSI[Aib]LEKQAQ[Aib]EFVQWLIK([γGlu-γGlu-γGlu-γGlu-γGlu-γGlu-C18 diacid])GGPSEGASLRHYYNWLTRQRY-NH2 [Compound 151]: 0.0189 µM
- H-Y[Aib]EGTFTSDYSI[Aib]LEKQAQ[Aib]EFVEWLIK([εLys-γGlu-γGlu-γGlu-γGlu-γGlu-C18 diacid])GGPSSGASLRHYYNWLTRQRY-NH2 [Compound 159]: 0.0138 µM
- H-Y[Aib]EGTFTSDYSI[Aib]LEKQAQ[Aib]AFVEWLIK([εLys-γGlu-γGlu-γGlu-γGlu-γGlu-γGlu-C20 diacid])GGPSEGQSIRHYYNWLTRQRY-NH2 [Compound 134]: 0.0101 µM
- H-Y[Aib]EGTFTSDYSI[Aib]LEKQAQ[Aib]AFVEWLIK([εLys-γGlu-γGlu-γGlu-γGlu-γGlu-γGlu-C20 diacid])GGPSSGASL[Aib]HYYNWLTRQRY-NH2 [Compound 129]: 0.0309 µM
- H-Y[Aib]EGTFTSDYSI[Aib]LEKQAQ[Aib]AFVEWLIK([εLys-γGlu-γGlu-γGlu-γGlu-γGlu-γGlu-C20 diacid])GGPSSGASLRHY[Aib]NR[Aib]TRQRY-NH2 [Compound 18]: 0.0857 µM
- Y[Aib]EGTFTSDYSI[Aib]LEKQAQ[Aib]AFVEWLIK([AEEA-AEEA-γGlu-γGlu-γGlu-γGlu-γGlu-C20 diacid])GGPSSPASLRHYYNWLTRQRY-NH2 [Compound 120]: 0.0107 µM
